The reported measurements were obtained from PubChem BioAssay AID1776.

test: green autofluorescence of compounds with GSH beads – biophysical, 488/530 nm, flow cytometry, artefact control, profiling panel (AID 1776); details: compound fluorescence 488/530 nm, at 10 µM, stronger effect = higher value;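 note: glutathione beads carrying GST-tagged Bcl family fusion proteins plus one bare bead set; values are compound well signal with DMSO vehicle wells as background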
The whole screen tested about 190,000 compounds, of which about 490 (0.26%) were called active. What follows is part of a selection rich in actives, with near analogues and random picks from the rest.
READOUT: fluorescence (KMESF)
Give bare numbers.

Field: example entries. Status: answers known.
[[record]]
compound = "CCOC(=O)CSc1ccccn1"
readout = "fluorescence (KMESF)"
observed = 16

[[record]]
compound = "NC(=O)Cc1ccc2sc(-c3ccccc3)nc2c1"
readout = "fluorescence (KMESF)"
observed = 4

[[record]]
compound = "O=C1/C(=C\\c2ccsc2)NC(=S)N1c1ccccc1"
readout = "fluorescence (KMESF)"
observed = 11

[[record]]
compound = "Cc1ccc2[nH]c(C(=O)O)c(NC(=O)c3ccccc3[N+](=O)[O-])c2c1"
readout = "fluorescence (KMESF)"
observed = 10

[[record]]
compound = "CCOC(=O)CC(=O)CSc1nc(-c2ccccc2)cc(-c2ccc(Cl)cc2)c1C#N"
readout = "fluorescence (KMESF)"
observed = 8

[[record]]
compound = "C=CCNC(=S)NNC(=O)COc1c(Cl)cc(Cl)cc1Cl"
readout = "fluorescence (KMESF)"
observed = 12

[[record]]
compound = "O=C(NCCCN1CCOCC1)c1ccc(N2CCCC2)c([N+](=O)[O-])c1"
readout = "fluorescence (KMESF)"
observed = 15

[[record]]
compound = "O=C(NCC1CCCCC1)c1cc(S(=O)(=O)N2CCCCC2)ccc1N1CCOCC1"
readout = "fluorescence (KMESF)"
observed = 10

[[record]]
compound = "Cc1cccc(OCC(O)CN2CCN(CCN3C(=O)c4cccc5cccc(c45)C3=O)CC2)c1C (centres undefined)"
readout = "fluorescence (KMESF)"
observed = 13

[[record]]
compound = "COc1cccc(OC)c1C(=O)NC(=S)NCc1ccco1"
readout = "fluorescence (KMESF)"
observed = 10


Required: fluorescence (KMESF), one value per compound below.
1. CC(C)CC(=O)NC(=S)Nc1ccc(F)cc1F
2. C#CCCCc1nc2ccccc2c(=O)n1N
3. CCC1C=C(c2ccccc2)C=CN=C1N(CC)CC (centres undefined)

Found:
1. 10
2. 11
3. 5

Required: fluorescence (KMESF), one value per compound below.
1. Brc1ccc(CSc2ccc(-c3ccco3)nn2)cc1
2. O=C(CSc1ccc([N+](=O)[O-])cn1)Nc1ccc(N2CCOCC2)cc1

Found:
11
16

* * *

assay: green autofluorescence of compounds with GSH beads – biophysical, 488/530 nm, flow cytometry, artefact control, profiling panel (AID 1776); conditions: compound fluorescence 488/530 nm, at 10 µM
Among all 190,000 compounds or so, about 490 (0.26%) were called active. Cut-off read from the data, not from the text of the source: active = fluorescence above about 89; inactive = the rest. This is one part of a sample in which actives are shown more often than they occur.
Hello, when you answer, please use one of the following outcomes: active, inactive

[[record]]
compound = "COC(=O)C1=C(C)N(C)C(=S)NC1c1ccccc1 (stereo unspecified)"
class_name = "inactive"

[[record]]
compound = "COC(=O)C1=C(C)N(C)C(C)=C(C(=O)OC)C1c1cccc(Br)c1"
class_name = "active"

[[record]]
compound = "O=C1N/C(=C/c2cccs2)C(=O)N1Cc1ccc(F)cc1"
class_name = "inactive"

[[record]]
compound = "Cc1ccc(C)c(-n2ccnc2SCC(N)=O)c1"
class_name = "inactive"

[[record]]
compound = "O=C(COc1ccc([N+](=O)[O-])cc1)Nc1ccc(N2CCCC2)cc1"
class_name = "inactive"


Lookup: Call for entry COC(=O)C1NN=C(C(=O)c2ccc(Br)cc2)C1c1cccc(Br)c1 (stereo unspecified) :
Found: inactive

* * *

test: green autofluorescence of compounds with GSH beads – biophysical, 488/530 nm, flow cytometry, artefact control, profiling panel (AID 1776); conditions: compound fluorescence 488/530 nm, at 10 µM;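 note: glutathione beads carrying GST-tagged Bcl family fusion proteins plus one bare bead set; values are compound well signal with DMSO vehicle wells as background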
Hit rate of the full screen: of about 190,000 compounds, about 490 (0.26%) were called active. Cut-off read from the data, not from the text of the source: active = fluorescence above about 89; inactive = the rest. The sample holds actives, similar compounds and a random draw of the others, so the mix is not that of the screen.
Hello, when you answer, please use one of the following outcomes: yes for active, no for inactive

Below are worked cases with known answers.
[[record]]
molecule = "O=C(NCc1nnc(SCC(=O)N2CCCc3ccccc32)o1)c1ccccc1F"
class_name = "no"

[[record]]
molecule = "COc1cc([N+](=O)[O-])ccc1NC(=O)CN1CCCC1"
class_name = "no"

[[record]]
molecule = "CCN(CC)C(=O)CN(c1cccc([N+](=O)[O-])c1)S(=O)(=O)c1ccccc1"
class_name = "no"


Lookup: Call for entry "CC[C@H]1OC(=O)[C@H](C)[C@@H](O[C@H]2C[C@@](C)(OC)[C@@H](O)[C@H](C)O2)[C@H](C)[C@@H](O[C@@H]2O[C@H](C)C[C@H](N(C)C)[C@H]2O)[C@](C)(O)C[C@@H](C)[C@@H]2N[C@@H](COCCOC)O[C@H]([C@H]2C)[C@]1(C)O" :
Found: no

Lookup: Call for entry CCCCC(NC(=O)c1cccc(Br)c1)C(=O)O (stereo not drawn) :
Found: no

Lookup: Call for entry COc1ccccc1N(C(=O)Cn1nnc2ccccc21)C(C(=O)NCc1ccco1)c1ccc(C)o1 (stereo not drawn) :
Found: yes

Lookup: Call for entry "NS(=O)(=O)c1ccc(NC(=S)NC(=O)c2cccc(Br)c2)cc1" :
Found: no

Lookup: Call for entry "CCOc1ccc(S(=O)(=O)N(CC(=O)O)c2ccccc2)cc1" :
Found: yes

* * *

assay: green autofluorescence of compounds with GSH beads – biophysical, 488/530 nm, flow cytometry, artefact control, profiling panel (AID 1776); settings: compound fluorescence 488/530 nm, at 10 µM, stronger effect = higher value;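 note: glutathione beads carrying GST-tagged Bcl family fusion proteins plus one bare bead set; values are compound well signal with DMSO vehicle wells as background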
Screen size: about 190,000 compounds; about 490 (0.26%) were called active. The sample as a whole holds a higher share of actives than the screen did.
# fluorescence (KMESF) >= 20 gives true (1), anything below gives false (0)

Below are worked cases with known answers.
[[record]]
compound_smiles = "CCN(CC)Cc1nc2sc(C)c(C)c2c(=O)[nH]1"
class_name = "false (0)"

[[record]]
compound_smiles = "Cc1cc(C)nc(Nc2cc([N+](=O)[O-])ccc2C)n1"
class_name = "false (0)"

[[record]]
compound_smiles = "COc1cc(NC(=O)c2cc([N+](=O)[O-])ccc2Br)ccc1NC(=O)c1ccco1"
class_name = "false (0)"


Lookup: Decide: is the reported value of fluorescence (KMESF) for "Cc1ccc(-n2cc3ccc([N+](=O)[O-])cc3n2)cc1" equal to or greater than 20?
Found: true (1)

Lookup: Decide: is the reported value of fluorescence (KMESF) for "COc1ccc(S(=O)(=O)N2CN(CCc3ccc(OC)c(OC)c3)c3nc4ccccc4nc32)cc1" equal to or greater than 20?
Found: false (0)

Lookup: Decide: is the reported value of fluorescence (KMESF) for "Cc1scc(C(=O)NNC(=S)NCC(C)C)c1C" equal to or greater than 20?
Found: false (0)

* * *

test: green autofluorescence of compounds with GSH beads – biophysical, 488/530 nm, flow cytometry, artefact control, profiling panel (AID 1776); conditions: compound fluorescence 488/530 nm, at 10 µM;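 note: glutathione beads carrying GST-tagged Bcl family fusion proteins plus one bare bead set; values are compound well signal with DMSO vehicle wells as background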
The campaign covered roughly 190,000 compounds. About 490 (0.26%) were called active. Rule as the data show it: active = fluorescence above about 89; inactive = the rest. The full list was thinned out, with actives kept by preference.
Hello, when you answer, please use one of the following outcomes: T = active, F = inactive

Below are worked cases with known answers.
[[record]]
compound = "Cc1ccc(Cl)cc1NC(=O)COC(=O)C1CCCCC1"
class_name = "T"

[[record]]
compound = "CCOc1ccc(S(=O)(=O)N/N=C(\\C)c2ccc(Cl)c(Cl)c2Cl)cc1"
class_name = "F"

[[record]]
compound = "CCOC(=O)Cc1csc(NC(=O)Nc2ccccc2)n1"
class_name = "F"

[[record]]
compound = "Cc1cccc(-n2cc(CN3CCN(C(=O)c4ncn[nH]4)CC3)c(-c3cccc(F)c3)n2)c1"
class_name = "F"

[[record]]
compound = "C/C(=N/NC(=S)Nc1ccccc1)c1ccc2c(c1)OCO2"
class_name = "F"


Lookup: Call for entry CC(C)c1nc(CNC(=O)CC2C(=O)NCCN2Cc2ccoc2)cs1 (stereo unspecified) :
Found: F

Lookup: Call for entry "CCOC(=O)Cc1csc(NC(NC(=O)OCC)(C(F)(F)F)C(F)(F)F)n1" :
Found: T

Lookup: Call for entry "CCOc1ccc(NC(=O)NNC(=O)c2ccc(Cl)cc2Cl)cc1" :
Found: F

Lookup: Call for entry "Cc1ccc(Cl)cc1NC(=O)C1CCN(S(C)(=O)=O)CC1" :
Found: F

Lookup: Call for entry "Cc1ccc(-c2cc(C(=O)N/N=C/C=C/c3ccccc3)n[nH]2)o1" :
Found: F

Lookup: Call for entry "CCC(=O)N1CCC(C(N)=O)(N2CCCCC2)CC1" :
Found: F
